System: NCI/ADR-RES ovarian
experiment summary: NCI tumour cell line growth inhibition, 48 h
assay readout: TGI

For orientation, consider the following solved cases.
COc1cccc(-c2nc(-c3cnccn3)n(C/C=C/c3ccccc3)n2)c1: > 10 µM
C(=Nc1ccc2c(c1)Cc1ccccc1-2)c1ccccn1: > 100 µM

Prompt: Which TGI value belongs to O=C(N/N=C/c1ccc(O)cc1O)c1cccnc1 ?
Response: > 100 µM

Prompt: Which TGI value belongs to S=C1NCCN1C(=S)Nc1ccccc1 ?
Response: > 100 µM

Prompt: Which TGI value belongs to CN1CC=C(c2c(N)nc(N)[nH]c2=O)CC1 ?
Response: > 100 µM

Prompt: Which TGI value belongs to Cn1c(=S)c2[nH]c(SCCCc3ccccc3)nc2n(C)c1=O ?
Response: > 100 µM
